target: PDK1_1-556 (Homo sapiens); construct: effect of HYG8 on the thermal stability (ΔTm) of PDK1_1-556 (H) and PDK1_50-359 (I); His (N); made in house; host or cells: Sf9 insect cells (baculovirus); experiment: Differential scanning fluorimetry, thermal stability of PDK1_1-556; type: binding; conditions: compound 20 µM, PDK1 1 μM
measurementLabel: Tm (°C), temperature stabilization of PDK1_1-556

# molecule, reportedValue
measured = [
    ("O=P(O)(O)O[C@@H]1[C@@H](OP(=O)(O)O)[C@H](OP(=O)(O)O)[C@H](O)[C@H](OP(=O)(O)O)[C@H]1OP(=O)(O)O [IP5, inositol-1,3,4,5,6-pentaphosphate, reference compound]", 11.9),
    ("O=P(O)(O)O[C@H]1[C@H](OP(=O)(O)O)[C@@H](OP(=O)(O)O)[C@H](OP(=O)(O)O)[C@@H](OP(=O)(O)O)[C@H]1OP(=O)(O)O [IP6, inositol hexakisphosphate, reference compound]", 9.0),
    ("CC(=O)O[C@H]1[C@@H](OP(=O)(O)O)[C@H](OP(=O)(O)O)[C@@H](OP(=O)(O)O)[C@H](OP(=O)(O)O)[C@H]1OP(=O)(O)O", 9.9),
    ("NCCO[C@H]1[C@@H](OP(=O)(O)O)[C@H](OP(=O)(O)O)[C@@H](OP(=O)(O)O)[C@H](OP(=O)(O)O)[C@H]1OP(=O)(O)O", 6.0),
    ("O=P(O)(O)O[C@@H]1[C@@H](OP(=O)(O)O)[C@H](OP(=O)(O)O)[C@@H](O)[C@H](OP(=O)(O)O)[C@H]1OP(=O)(O)O [scyllo-IP5, reference compound]", 7.3),
]

----------
molecular target: UniProt:O15530; experiment: Thermo Fisher "PDK1 Direct" assay (peptide Ser/Thr 07, FRET readout); format: biochemical; conditions: 1 μM, replicate point 1; read-out: % Inhibition Point 1
Think of 50% as a floor: if inhibition at 1 µM stands on it or above, it is class 1; beneath it, class 0.

# compound, class
data = [
    ("CC(=O)O[C@H]1[C@@H](OP(=O)(O)O)[C@H](OP(=O)(O)O)[C@@H](OP(=O)(O)O)[C@H](OP(=O)(O)O)[C@H]1OP(=O)(O)O", "class 1"),
    ("O=P(O)(O)O[C@@H]1[C@@H](OP(=O)(O)O)[C@H](OP(=O)(O)O)[C@H](O)[C@H](OP(=O)(O)O)[C@H]1OP(=O)(O)O [IP5, inositol-1,3,4,5,6-pentaphosphate, reference compound]", "class 1"),
    ("O=P(O)(O)O[C@H]1[C@H](OP(=O)(O)O)[C@@H](OP(=O)(O)O)[C@H](OP(=O)(O)O)[C@@H](OP(=O)(O)O)[C@H]1OP(=O)(O)O [IP6, inositol hexakisphosphate, reference compound]", "class 0"),
    ("CCCC(=O)O[C@H]1[C@@H](OP(=O)(O)O)[C@H](OP(=O)(O)O)[C@@H](OP(=O)(O)O)[C@H](OP(=O)(O)O)[C@H]1OP(=O)(O)O", "class 1"),
    ("O=C(O[C@H]1[C@@H](OP(=O)(O)O)[C@H](OP(=O)(O)O)[C@@H](OP(=O)(O)O)[C@H](OP(=O)(O)O)[C@H]1OP(=O)(O)O)c1ccccc1", "class 1"),
]

----------
biological target: PDK1 (Homo sapiens); experiment: Thermo Fisher "PDK1 Direct" assay (peptide Ser/Thr 07, FRET readout); format: biochemical; conditions: 10-point titration

# compound, Hill slope, PDK1 direct
data = [
    ("CC(=O)O[C@H]1[C@@H](OP(=O)(O)O)[C@H](OP(=O)(O)O)[C@@H](OP(=O)(O)O)[C@H](OP(=O)(O)O)[C@H]1OP(=O)(O)O [HYG6, 2-O-acetyl-IP5]", 1.11),
    ("O=C(O[C@H]1[C@@H](OP(=O)(O)O)[C@H](OP(=O)(O)O)[C@@H](OP(=O)(O)O)[C@H](OP(=O)(O)O)[C@H]1OP(=O)(O)O)c1ccccc1 [HYG8, 2-O-benzoyl-IP5]", 1.39),
    ("CCCCO[C@H]1[C@@H](OP(=O)(O)O)[C@H](OP(=O)(O)O)[C@@H](OP(=O)(O)O)[C@H](OP(=O)(O)O)[C@H]1OP(=O)(O)O [HYG14, 2-O-butyl-IP5]", 1.61),
    ("O=P(O)(O)O[C@@H]1[C@@H](OP(=O)(O)O)[C@H](OP(=O)(O)O)[C@H](O)[C@H](OP(=O)(O)O)[C@H]1OP(=O)(O)O [IP5, inositol-1,3,4,5,6-pentaphosphate, reference compound]", 1.33),
    ("CCCC(=O)O[C@H]1[C@@H](OP(=O)(O)O)[C@H](OP(=O)(O)O)[C@@H](OP(=O)(O)O)[C@H](OP(=O)(O)O)[C@H]1OP(=O)(O)O [HYG7, 2-O-butyryl-IP5]", 1.39),
]

----------
molecular target: His-PDK1_1-556 and GST-PDK1_360-556 (Homo sapiens); construct: made in house; host or cells: Sf9 insect cells (His-PDK1_1-556); HEK293 cells (GST-PDK1_360-556); test: AlphaScreen PDK1 dimerization assay His-PDK1_1-556 / GST-PDK1_360-556; type: binding; conditions: absence of PIFtide; read-out: IC50 (nM), displacement of His-PDK1_1-556 interaction with GST-PDK1_360-556
Reported log10 IC50 values follow for various compounds
measurementLabel: log10 IC50 (log10 of the value in nM)

# compound, measurementLabel, reportedValue
records = [
    ("CC(=O)O[C@H]1[C@@H](OP(=O)(O)O)[C@H](OP(=O)(O)O)[C@@H](OP(=O)(O)O)[C@H](OP(=O)(O)O)[C@H]1OP(=O)(O)O", "log10 IC50", 1.43),
    ("NCCO[C@H]1[C@@H](OP(=O)(O)O)[C@H](OP(=O)(O)O)[C@@H](OP(=O)(O)O)[C@H](OP(=O)(O)O)[C@H]1OP(=O)(O)O", "log10 IC50", 2.66),
    ("O=P(O)(O)O[C@@H]1[C@@H](OP(=O)(O)O)[C@H](OP(=O)(O)O)[C@@H](O)[C@H](OP(=O)(O)O)[C@H]1OP(=O)(O)O [scyllo-IP5, reference compound]", "log10 IC50", 2.09),
    ("O=C(O[C@H]1[C@@H](OP(=O)(O)O)[C@H](OP(=O)(O)O)[C@@H](OP(=O)(O)O)[C@H](OP(=O)(O)O)[C@H]1OP(=O)(O)O)c1ccccc1", "log10 IC50", 1.52),
    ("O=P(O)(O)O[C@@H]1[C@@H](OP(=O)(O)O)[C@H](OP(=O)(O)O)[C@H](O)[C@H](OP(=O)(O)O)[C@H]1OP(=O)(O)O [IP5, inositol-1,3,4,5,6-pentaphosphate, reference compound]", "log10 IC50", 1.83),
    ("CCCCO[C@H]1[C@@H](OP(=O)(O)O)[C@H](OP(=O)(O)O)[C@@H](OP(=O)(O)O)[C@H](OP(=O)(O)O)[C@H]1OP(=O)(O)O", "log10 IC50", 1.47),
    ("CCCC(=O)O[C@H]1[C@@H](OP(=O)(O)O)[C@H](OP(=O)(O)O)[C@@H](OP(=O)(O)O)[C@H](OP(=O)(O)O)[C@H]1OP(=O)(O)O", "log10 IC50", 1.35),
]

----------
Reported Tm (°C), temperature stabilization of PDK1_1-556 values follow for various molecules
Molecular target: PDK1_1-556 (Homo sapiens)
Construct: effect of HYG8 on the thermal stability (ΔTm) of PDK1_1-556 (H) and PDK1_50-359 (I); His (N); made in house; host or cells: Sf9 insect cells (baculovirus)
Sequence (O15530 1-556): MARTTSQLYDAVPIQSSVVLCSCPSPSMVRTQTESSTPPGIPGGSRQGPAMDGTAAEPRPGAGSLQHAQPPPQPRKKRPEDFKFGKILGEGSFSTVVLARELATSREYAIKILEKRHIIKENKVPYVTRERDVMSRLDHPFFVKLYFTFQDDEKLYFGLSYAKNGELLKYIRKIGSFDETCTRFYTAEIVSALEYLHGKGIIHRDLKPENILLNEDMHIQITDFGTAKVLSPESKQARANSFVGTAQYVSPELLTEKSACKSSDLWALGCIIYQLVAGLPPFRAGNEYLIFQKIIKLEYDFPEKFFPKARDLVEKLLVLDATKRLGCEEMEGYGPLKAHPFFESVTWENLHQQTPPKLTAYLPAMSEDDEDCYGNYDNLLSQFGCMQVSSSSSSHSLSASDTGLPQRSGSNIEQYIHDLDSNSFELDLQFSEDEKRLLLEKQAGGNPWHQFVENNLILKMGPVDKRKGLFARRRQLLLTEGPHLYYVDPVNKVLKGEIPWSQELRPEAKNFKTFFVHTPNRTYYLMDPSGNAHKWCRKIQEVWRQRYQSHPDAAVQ
Test: Differential scanning fluorimetry, thermal stability of PDK1_1-556
Assay type: binding
Details: compound 1 µM, PDK1 1 μM
measurementLabel: Tm (°C), temperature stabilization of PDK1_1-556

# molecule, valueUnits, reportedValue
records = [
    ("CC(=O)O[C@H]1[C@@H](OP(=O)(O)O)[C@H](OP(=O)(O)O)[C@@H](OP(=O)(O)O)[C@H](OP(=O)(O)O)[C@H]1OP(=O)(O)O", "°C", 7.8),
    ("O=P(O)(O)O[C@@H]1[C@@H](OP(=O)(O)O)[C@H](OP(=O)(O)O)[C@@H](O)[C@H](OP(=O)(O)O)[C@H]1OP(=O)(O)O [scyllo-IP5, reference compound]", "°C", 4.7),
    ("O=P(O)(O)O[C@H]1[C@H](OP(=O)(O)O)[C@@H](OP(=O)(O)O)[C@H](OP(=O)(O)O)[C@@H](OP(=O)(O)O)[C@H]1OP(=O)(O)O [IP6, inositol hexakisphosphate, reference compound]", "°C", 6.2),
    ("O=P(O)(O)O[C@@H]1[C@@H](OP(=O)(O)O)[C@H](OP(=O)(O)O)[C@H](O)[C@H](OP(=O)(O)O)[C@H]1OP(=O)(O)O [IP5, inositol-1,3,4,5,6-pentaphosphate, reference compound]", "°C", 5.3),
    ("NCCO[C@H]1[C@@H](OP(=O)(O)O)[C@H](OP(=O)(O)O)[C@@H](OP(=O)(O)O)[C@H](OP(=O)(O)O)[C@H]1OP(=O)(O)O", "°C", 2.9),
]
